assayNotes: Luminescence activity assay of purified Gaussia luciferase mutants on coelenterazine
Type: biochemical
Set-up: key: ratio of mutant luminescence intensity to wild-type Gaussia luciferase
experimentalContext: Substrate CTZ (Table 16)
Binary call on Activity of mutant relative to wild-type Gaussia luciferase without the signal peptide: 1 from 0.4 upward, -1 beneath that.

Prompt line: Assess whether reported Activity of mutant relative to wild-type Gaussia luciferase without the signal peptide for F26N V29S A30D S33D A36T T37A L40G: Gaussia luciferase mutant (protein, SIGNAL (1)..(17), Gaussia luciferase mutant) MGVKVLFALICIAVAEAKPTENNEDNNISDVADNFTATDGDADRGKLPGKKLPLEVLKEMEANARKAGCTRGCLICLSHIKCTPKMKKFIPGRCHTYEGDKESAQGGIGEAIVDIPEIPGFKDLEPMEQFIAQVDLCVDCTTGCLKGLANVQCSDLLKKWLPQRCATFASKIQGQVDKIKGAGGD sits at 0.4 or higher.
Response line: -1

---
Prompt line: Assess whether reported Activity of mutant relative to wild-type Gaussia luciferase without the signal peptide for F26I N27H V29G A32G S33D A36G T37L L40I: Gaussia luciferase mutant (protein, SIGNAL (1)..(17), Gaussia luciferase mutant) MGVKVLFALICIAVAEAKPTENNEDIHIGAVGDNFGLTDIDADRGKLPGKKLPLEVLKEMEANARKAGCTRGCLICLSHIKCTPKMKKFIPGRCHTYEGDKESAQGGIGEAIVDIPEIPGFKDLEPMEQFIAQVDLCVDCTTGCLKGLANVQCSDLLKKWLPQRCATFASKIQGQVDKIKGAGGD sits at 0.4 or higher.
Response line: -1

Prompt line: How about this molecule: F26V N27Y V29N A30D V31D D32L S33R A36R T37W L40Y K180R: Gaussia luciferase mutant (protein, SIGNAL (1)..(17), Gaussia luciferase mutant) MGVKVLFALICIAVAEAKPTENNEDVYINDDLRNFRWTDYDADRGKLPGKKLPLEVLKEMEANARKAGCTRGCLICLSHIKCTPKMKKFIPGRCHTYEGDKESAQGGIGEAIVDIPEIPGFKDLEPMEQFIAQVDLCVDCTTGCLKGLANVQCSDLLKKWLPQRCATFASKIQGQVDKIRGAGGD
Response line: -1

Prompt line: How about this molecule: F26D N27D V290 A30D V31I S33R T37L: Gaussia luciferase mutant (protein) MGVKVLFALICIAVAEAKPTENNEDDDIVDIARNFALTDLDADRGKLPGKKLPLEVLKEMEANARKAGCTRGCLICLSHIKCTPKMKKFIPGRCHTYEGDKESAQGGIGEAIVDIPEIPGFKDLEPMEQFIAQVDLCVDCTTGCLKGLANVQCSDLLKKWLPQRCATFASKIQGQVDKIKGAGGD
Response line: 1

Prompt line: How about this molecule: F26S V29L A30G S33R T37K L40A: Gaussia luciferase mutant (protein, SIGNAL (1)..(17), Gaussia luciferase mutant) MGVKVLFALICIAVAEAKPTENNEDSNILGVARNFAKTDADADRGKLPGKKLPLEVLKEMEANARKAGCTRGCLICLSHIKCTPKMKKFIPGRCHTYEGDKESAQGGIGEAIVDIPEIPGFKDLEPMEQFIAQVDLCVDCTTGCLKGLANVQCSDLLKKWLPQRCATFASKIQGQVDKIKGAGGD
Response line: 1

Prompt line: How about this molecule: K66R P84A E102S S103I A104G E110A L124M V138E: Gaussia luciferase mutant (protein, SIGNAL (1)..(17), Gaussia luciferase mutant) MGVKVLFALICIAVAEAKPTENNEDFNIVAVASNFATTDLDADRGKLPGKKLPLEVLKEMEANARRAGCTRGCLICLSHIKCTAKMKKFIPGRCHTYEGDKSIGQGGIGAAIVDIPEIPGFKDMEPMEQFIAQVDLCEDCTTGCLKGLANVQCSDLLKKWLPQRCATFASKIQGQVDKIKGAGGD
Response line: 1

Prompt line: How about this molecule: Q152R Q163T T167S S170N G174K K178S A182Y G183A: Gaussia luciferase mutant (protein, SIGNAL (1)..(17), Gaussia luciferase mutant) MGVKVLFALICIAVAEAKPTENNEDFNIVAVASNFATTDLDADRGKLPGKKLPLEVLKEMEANARKAGCTRGCLICLSHIKCTPKMKKFIPGRCHTYEGDKESAQGGIGEAIVDIPEIPGFKDLEPMEQFIAQVDLCVDCTTGCLKGLANVRCSDLLKKWLPTRCASFANKIQKQVDSIKGYAGD
Response line: 1

Prompt line: How about this molecule: F26G N27Y A30G V31L A32G S33L A36Y T37V L40E: Gaussia luciferase mutant (protein, SIGNAL (1)..(17), Gaussia luciferase mutant) MGVKVLFALICIAVAEAKPTENNEDGYIVGLGLNFYVTDEDADRGKLPGKKLPLEVLKEMEANARKAGCTRGCLICLSHIKCTPKMKKFIPGRCHTYEGDKESAQGGIGEAIVDIPEIPGFKDLEPMEQFIAQVDLCVDCTTGCLKGLANVQCSDLLKKWLPQRCATFASKIQGQVDKIKGAGGD
Response line: -1
